- Test system: BDF1 mice, B16 melanoma s.c., survival/tumor T/C
- assay.remarks: NCI In Vivo Anticancer Drug Screen. Data for tumor model B16 Melanoma (subcutaneous) in B6D2F1 (BDF1) mice
- condition.label: endpoint: median survival time; dose: 8.0 mg/kg/injection; schedule: Q01DX009 (ip); vehicle: saline
Results filed as inconclusive are left out. Rule for the calls: active = survival T/C of 150% or more; inactive = T/C below 125% in these data.
Labels: active, inactive

compound.structure: O=NN(CCCl)C(=O)NCCCl
category: active
--
compound.structure: C[CH2][Ge]1([CH2]C)[CH2]CC2(CCN(CCCN(C)C)C2)C[CH2]1
category: inactive
--
compound.structure: CC1(C)N=C(N)N=C(N)N1c1ccc(CCCCc2ccc(Cl)c(S(=O)(=O)F)c2)c(Cl)c1
category: inactive
--
compound.structure: FC(F)(F)c1nc2nc(Cl)c(Cl)nc2[nH]1
category: inactive
--
compound.structure: N[C@H](C(=O)O)[C@@H]1CC(Cl)=NO1
category: inactive

----------
Items are presented alongside their recorded T/C.
- System: BDF1 mice, B16 melanoma s.c., survival/tumor T/C
- assay.remarks: NCI In Vivo Anticancer Drug Screen. Data for tumor model B16 Melanoma (subcutaneous) in B6D2F1 (BDF1) mice
- condition.label: endpoint: median survival time; dose: 32.0 mg/kg/injection; schedule: Q01DX009 (ip); vehicle: saline; higher = longer survival
Records with an inconclusive call do not appear.
quantity: T/C

compound: C[CH2][Ge]1([CH2]C)[CH2]CC2(CCN(CCCN(C)C)C2)C[CH2]1
reported.result: 112 % of control
//
compound: CCN(CC)CCCC(C)Nc1c2ccc(Cl)cc2nc2ccc(OC)cc12 (stereo not drawn)
reported.result: 99 % of control
//
compound: O=NN(CCCl)C(=O)NC1CCCCC1
reported.result: 105 % of control
//
compound: O=[N+]([O-])O.[Ga]
reported.result: 86 % of control
//
compound: N[C@H](C(=O)O)[C@H]1ON=C(Cl)[C@@H]1O
reported.result: 108 % of control
//
compound: C[C@H](CN1CC(=O)NC(=O)C1)N1CC(=O)NC(=O)C1
reported.result: 112 % of control
//
compound: COc1ccc(C[C@H](N)C(=O)NC2C(CO)OC(n3cnc4c(N(C)C)ncnc43)C2O)cc1 (stereo partly drawn)
reported.result: 107 % of control
//
compound: CC(=O)Oc1ccccc1C(=O)O
reported.result: 95 % of control

----------
- Test system: BDF1 mice, B16 melanoma s.c., survival/tumor T/C
- assay.remarks: NCI In Vivo Anticancer Drug Screen. Data for tumor model B16 Melanoma (subcutaneous) in B6D2F1 (BDF1) mice
- condition.label: endpoint: median survival time; dose: 8.0 mg/kg/injection; schedule: Q01DX009 (ip); vehicle: saline
Inconclusive results are not listed. How the source made its calls: active means survival T/C of 150% or more; inactive means T/C below 125% in these data.
Labels: y for active, n for inactive

compound: N[C@H](C(=O)O)[C@H]1ON=C(Cl)[C@@H]1O
category: n
--
compound: C[C@H](CN1CC(=O)NC(=O)C1)N1CC(=O)NC(=O)C1
category: n
--
compound: O=C1c2ccccc2C(=O)c2c(NCCNCCO)ccc(NCCNCCO)c21
category: n
--
compound: Nc1nc([Se])c2ncn(C3OC(CO)C(O)C3O)c2n1 (configuration not stated)
category: n
--
compound: CCN(CC)CCCC(C)Nc1c2ccc(Cl)cc2nc2ccc(OC)cc12 (configuration not stated)
category: n
--
compound: Cc1c(N)nc([C@H](CC(N)=O)NC[C@H](N)C(N)=O)nc1C(=O)N[C@H](C(=O)N[C@H](C)[C@@H](O)CC(=O)N[C@H](C(=O)NC(O[C@@H]1O[C@@H](C)[C@@H](N)[C@@H](O)[C@H]1O)C(O)c1nc(-c2nc(C(=O)NCCCCN)cs2)cs1)[C@@H](C)O)[C@@H](O[C@@H]1O[C@@H](CO)[C@@H](O)[C@H](O)[C@@H]1O[C@H]1O[C@H](CO)[C@@H](O)[C@H](OC(N)=O)[C@@H]1O)c1c[nH]cn1 (some centres not stated)
category: y
--
compound: COc1ccc(C[C@H](N)C(=O)NC2C(CO)OC(n3cnc4c(N(C)C)ncnc43)C2O)cc1 (some centres not stated)
category: y
